Each recorded value in this set is attributed to patent US20250100973A1.

Tested on: HT-29 human colon cancer cells
Experiment: In vitro antiproliferative activity (resazurin, 96 h)
Format: cell-based
Conditions: Homo sapiens; HT-29, 96 h culture, resazurin fluorescence; read-out: IC50 grade of inhibitory effect on tumor cells, HT-29
Method: Objective: to test the antiproliferative activity of the compound in the present disclosure against a variety of tumor cells. […] Amonafide and lomustine were commercially available. Test cells: human colon cancer cells (HT-29, COLO 205), human lung cancer cells (NCI-H460, A549), and human leukemia cells (HL-60, U-937). […] A fluorescence value of each well was tested at 530/590 nm. […] The IC50 value of each test compound was calculated with the Prism7 software. […]
pIC50: −log10 of the molar value.
measurementType: pIC50

The following compounds have reported results that may help.
compound	targetSystem	pIC50
CN(C)C(=O)N(C)CCCNCN1C(=O)c2cccc3cccc(c23)C1=O	HT-29 human colon cancer cells	5.00 to 5.30
CCN(CC)C(=O)N(C)CCNCN1C(=O)c2cccc3c(OC)ccc(c23)C1=O	HT-29 human colon cancer cells	5.30 to 6.00
CC(C)(C)OC(=O)NCCCN1CCN(CCCN2C(=O)c3cccc4cc([N+](=O)[O-])cc(c34)C2=O)CC1	HT-29 human colon cancer cells	5.00 to 5.30

Please give pIC50, item by item, for the list that follows.
1. CN(C)CCN1C(=O)c2cccc3cc(N)cc(c23)C1=O [Amonafide]
2. CCN(CCNC(=O)N(C)CC)CCN1C(=O)c2cccc3cc([N+](=O)[O-])cc(c23)C1=O
3. CC(C)(C)OC(=O)NCCCNCCCN1C(=O)c2cccc3cc([N+](=O)[O-])cc(c23)C1=O

Ans.
4.70 to 4.96
5.30 to 6.00
5.00 to 5.30

Record O=NN(CCCl)C(=O)NC1CCCCC1 . Reported pIC50: 4.00 to 4.29
